- Test system: A498
- ASSAY: minimum viability across doses, drug alone, relative to DMSO (fraction); higher = less growth inhibition
- MEASUREMENT CONDITIONS: treatment: drug alone; 5 days
# strict inequality: minimum viability across doses < 1 yields MET, everything else yields NOT MET

Field: example entries. Status: answers known.
1. COc1cc2nccc(Oc3ccc(NC(=O)C4(C(=O)Nc5ccc(F)cc5)CC4)cc3)c2cc1OC [XL-184 free base (Cabozantinib)]	MET
2. CC(C)c1cnn2c(NCc3ccccc3)cc(NCCCCCCN)nc12.Cl [BS-181 HCl]	NOT MET
3. C=CC(=O)Nc1cccc(Oc2nc(Nc3ccc(N4CCN(C)CC4)cc3)ncc2Cl)c1	MET

Attention now turns to another entry.
[ask] Problem: For the compound CC(C)(O)CC(=O)NCCn1ccc2ncnc(Nc3ccc(Oc4cccc(C(F)(F)F)c4)c(Cl)c3)c21 , is minimum viability across doses under 1?
[reply] MET
